- TEST_SYSTEM: CDC25B (Homo sapiens, UniProt P30305)
- PROTOCOL_DETAILS: Intrinsic fluorescence quenching of recombinant CDC25B catalytic domain (Stern-Volmer)
- Assay type: binding
- ASSAY_SETUP: 0.2 µM wild-type CDC25B, emission 357 nm, 20 °C, no OMFP
- Protocol: Fluorescence spectra were recorded at 20 °C using a computer-assisted Cary Eclipse spectrofluorimeter (Varian, Palo Alto, CA, USA) equipped with an electronic temperature controller. […] Furthermore, a correction was also applied for the little inner-filter effect due to the absorbance at 280 nm of the NPA derivative used at different concentrations; on the other hand, no correction was necessary for OMFP. All spectra, recorded at a scan speed of 120 nm/min, were normalised and corrected.
- Sequence (P30305 391-565 limits assumed): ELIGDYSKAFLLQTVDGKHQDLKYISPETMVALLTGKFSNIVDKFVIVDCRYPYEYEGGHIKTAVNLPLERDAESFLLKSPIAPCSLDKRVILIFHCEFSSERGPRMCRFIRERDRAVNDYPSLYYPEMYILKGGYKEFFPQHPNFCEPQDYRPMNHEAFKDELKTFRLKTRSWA
REPORTED_METRIC: KSV (Stern-Volmer constant) (µM⁻¹)

Please review the following examples before continuing.
# SMILES_STR, TEST_SYSTEM, UNIT_NAME, OBSERVED_RESULT
measured = [
    ("Nc1cccc2c(Nc3cccc(C(=O)O)c3)cccc12", "CDC25B (Homo sapiens, UniProt P30305)", "µM⁻¹", 0.129),
    ("CCOC(=O)c1ccccc1Nc1cccc2ccccc12", "CDC25B (Homo sapiens, UniProt P30305)", "µM⁻¹", 0.011),
]

[I] CCOC(=O)c1cccc(Nc2cccc3ccccc23)c1
[II] CCOC(=O)c1cccc(Nc2cc(OC)cc3ccccc23)c1
[III] Nc1ccc(Nc2cccc(C(=O)O)c2)c2ccccc12
[IV] O=C(O)c1ccccc1Nc1ccc(O)c2ccccc12
Qu. Order these by KSV (Stern-Volmer constant), descending, and give the full ranking. Form entry: ranked labels (order as requested).
Ans. III, IV, I, II
(III: 0.069 µM⁻¹, IV: 0.035 µM⁻¹, I: 0.016 µM⁻¹, II: 0.010 µM⁻¹)

---

- TEST_SYSTEM: CDC25B (Homo sapiens, UniProt P30305)
- PROTOCOL_DETAILS: Intrinsic fluorescence quenching of recombinant CDC25B catalytic domain (Stern-Volmer)
- ASSAY_SETUP: reciprocal of KSV; inhibitor concentration leading to 50% quenching of CDC25B emission; read-out: K′D of the complex, Free CDC25B•inhibitor
REPORTED_METRIC: Kd (µM)

[A] Nc1ccc(Nc2cccc(C(=O)O)c2)c2ccccc12
[B] O=C(O)c1ccccc1Nc1ccc(O)c2ccccc12
[C] Nc1cccc2c(Nc3cccc(C(=O)O)c3)cccc12
Qu. Put the listed items above in order, lowest Kd first. Form entry: ranked labels (order as requested).
Ans. C, A, B
(C: 7.8 µM, A: 14.5 µM, B: 28.6 µM)

---

- TEST_SYSTEM: CDC25B (Homo sapiens)
- PROTOCOL_DETAILS: Kinetic studies of CDC25B phosphatase inhibition (OMFP substrate)
- Type: biochemical
- ASSAY_SETUP: putative from Lineweaver-Burk plots (ref 18), confirmed by the fluorescence studies of this work
- Sequence (P30305 whole entry, the tested form may be a part): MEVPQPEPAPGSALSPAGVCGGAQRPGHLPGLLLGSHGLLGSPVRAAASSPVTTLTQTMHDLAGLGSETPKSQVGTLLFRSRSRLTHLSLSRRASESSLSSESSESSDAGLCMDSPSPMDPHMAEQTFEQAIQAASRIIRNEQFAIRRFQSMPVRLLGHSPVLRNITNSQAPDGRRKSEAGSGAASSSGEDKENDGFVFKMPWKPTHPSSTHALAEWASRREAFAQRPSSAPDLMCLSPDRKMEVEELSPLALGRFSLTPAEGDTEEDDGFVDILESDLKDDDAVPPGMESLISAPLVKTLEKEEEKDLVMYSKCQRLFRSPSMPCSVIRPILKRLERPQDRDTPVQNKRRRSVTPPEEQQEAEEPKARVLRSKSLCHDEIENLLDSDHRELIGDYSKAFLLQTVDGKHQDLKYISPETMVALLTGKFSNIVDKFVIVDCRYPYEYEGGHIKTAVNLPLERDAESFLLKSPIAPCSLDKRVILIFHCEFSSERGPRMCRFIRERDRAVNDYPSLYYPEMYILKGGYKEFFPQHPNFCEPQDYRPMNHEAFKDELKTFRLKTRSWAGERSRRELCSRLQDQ
REPORTED_METRIC: Inhibition mechanism

# SMILES_STR, TEST_SYSTEM, OBSERVED_RESULT
rows = [
    ("CCOC(=O)c1cccc(Nc2cc(OC)cc3ccccc23)c1", "CDC25B (Homo sapiens)", "uncompetitive"),
    ("Nc1cccc2c(Nc3cccc(C(=O)O)c3)cccc12", "CDC25B (Homo sapiens)", "noncompetitive"),
    ("CCOC(=O)c1ccccc1Nc1cccc2ccccc12", "CDC25B (Homo sapiens)", "uncompetitive"),
    ("Nc1ccc(Nc2cccc(C(=O)O)c2)c2ccccc12", "CDC25B (Homo sapiens)", "noncompetitive"),
]

Qu. State the recorded Inhibition mechanism for this entry: `O=C(O)c1ccccc1Nc1ccc(O)c2ccccc12`
Ans. noncompetitive

Qu. State the recorded Inhibition mechanism for this entry: `CCOC(=O)c1cccc(Nc2cccc3ccccc23)c1`
Ans. uncompetitive

---

- TEST_SYSTEM: OMFP-bound CDC25B-C473S (Homo sapiens, UniProt P30305, C487S)
- Sequence (P30305 370-580 C487S): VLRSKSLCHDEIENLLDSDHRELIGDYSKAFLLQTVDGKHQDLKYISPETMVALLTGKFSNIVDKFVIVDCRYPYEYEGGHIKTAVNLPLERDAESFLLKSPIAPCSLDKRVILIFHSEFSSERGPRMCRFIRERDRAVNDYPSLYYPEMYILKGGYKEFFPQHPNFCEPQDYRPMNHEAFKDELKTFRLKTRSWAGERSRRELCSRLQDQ
- PROTOCOL_DETAILS: Intrinsic fluorescence quenching of CDC25B-C473S in the presence of 5 µM OMFP (Stern-Volmer)
- ASSAY_SETUP: reciprocal of KSV; presence of 5 µM OMFP; read-out: K′D of the complex, OMFP-bound CDC25B-C473S•inhibitor
REPORTED_METRIC: Kd (µM)

# MOLECULE, OBSERVED_RESULT
measured = [
    ("CCOC(=O)c1cccc(Nc2cc(OC)cc3ccccc23)c1 [4a]", 32),
    ("CCOC(=O)c1cccc(Nc2cccc3ccccc23)c1 [compound 4]", 43),
]

[I] CCOC(=O)c1ccccc1Nc1cccc2ccccc12 [compound 3]
[II] Nc1cccc2c(Nc3cccc(C(=O)O)c3)cccc12 [7j]
Qu. Identify the entry with the larger Kd. Options: I and II State your choice using its label.
Ans. I
(I: 24 µM, II: 15.1 µM)

---

# Kd values compiled below
- TEST_SYSTEM: CDC25B (Homo sapiens, UniProt P30305)
- PROTOCOL_DETAILS: Intrinsic fluorescence quenching of recombinant CDC25B catalytic domain (Stern-Volmer)
- ASSAY_SETUP: reciprocal of KSV; inhibitor concentration leading to 50% quenching of CDC25B emission; read-out: K′D of the complex, Free CDC25B•inhibitor
- Protocol: Fluorescence spectra were recorded at 20 °C using a computer-assisted Cary Eclipse spectrofluorimeter (Varian, Palo Alto, CA, USA) equipped with an electronic temperature controller. […] Furthermore, a correction was also applied for the little inner-filter effect due to the absorbance at 280 nm of the NPA derivative used at different concentrations; on the other hand, no correction was necessary for OMFP. All spectra, recorded at a scan speed of 120 nm/min, were normalised and corrected.

Please review the following examples before continuing.
# SMILES_STR, Kd
data = [
    ("CCOC(=O)c1ccccc1Nc1cccc2ccccc12", "> 50 µM"),
    ("CCOC(=O)c1cccc(Nc2cc(OC)cc3ccccc23)c1", "> 50 µM"),
]

We next turn to a different molecule, shown below.
Qu. State the recorded Kd for this entry: `CCOC(=O)c1cccc(Nc2cccc3ccccc23)c1`
Ans. > 50 µM
